test system: panel of HIV-1 ENV-pseudoviruses (subtype A, A/D, A2/D, A/E, A/G, B, C and D); experiment: microbe, parasite or virus in culture; type: cell-based; details: Human immunodeficiency virus 1, TZM-bl, read-out: IC50 (μM) ± S.D., subtype B, ENV B41
// IC50 lookup, one value per entry
MEASURED_METRIC: IC50 (µM)

INSERT INTO results (molecule, test_system, measured_number) VALUES
  ('Cc1nc(C(NC(=O)c2ccc(-c3ccc(Cl)cc3)[nH]2)C2CCCCN2)sc1CO (stereo not drawn) [Compound 15]', 'panel of HIV-1 ENV-pseudoviruses (subtype A, A/D, A2/D, A/E, A/G, B, C and D)', 1.1),
  ('Cc1nc(C(NC(=O)c2ccc(-c3ccc(Cl)cc3)[nH]2)C2CCCCN2)sc1CO (single isomer, unassigned) [Compound 17]', 'panel of HIV-1 ENV-pseudoviruses (subtype A, A/D, A2/D, A/E, A/G, B, C and D)', 0.68),
  ('Cc1nc(C(CN)NC(=O)c2ccc(-c3ccc(Cl)cc3)[nH]2)sc1CO (single isomer, unassigned)', 'panel of HIV-1 ENV-pseudoviruses (subtype A, A/D, A2/D, A/E, A/G, B, C and D)', 0.28);

====

system: panel of HIV-1 ENV-pseudoviruses (subtype A, A/D, A2/D, A/E, A/G, B, C and D); assay: microbe, parasite or virus in culture; type: cell-based; details: Human immunodeficiency virus 1, TZM-bl, read-out: IC50 (μM) ± S.D., subtype C, NIH # 11313, ENV ZM53M.PB12
MEASURED_METRIC: IC50

INSERT INTO results (molecule, measured_metric, result) VALUES
  ('Cc1nc(C(NC(=O)c2ccc(-c3ccc(Cl)cc3)[nH]2)C2CCCCN2)sc1CO (centres unmarked) [Compound 15]', 'IC50', '1.3 µM'),
  ('Cc1nc(C(NC(=O)c2ccc(-c3ccc(Cl)cc3)[nH]2)C2CCCCN2)sc1CO (single isomer, unassigned) [Compound 17]', 'IC50', '1.5 µM');

====

test system: PBMC; assay: Cytotoxicity in PBMC (XTT); type: cell-based; settings: 7 days
MEASURED_METRIC: CC50

INSERT INTO assay_data (molecule, measured_metric, result) VALUES
  ('Cc1nc(C(NC(=O)C(=O)Nc2ccc(Cl)cc2)C2CCCCN2)sc1CO (stereo not drawn)', 'CC50', '> 160 µM'),
  ('CC1(C)CC(NC(=O)C(=O)Nc2ccc(Cl)cc2)CC(C)(C)N1', 'CC50', '> 280 µM'),
  ('Cc1nc(C(NC(=O)c2ccc(-c3ccc(Cl)cc3)[nH]2)C2CCCCN2)sc1CO (stereo not drawn)', 'CC50', '~36 µM');

====

system: panel of HIV-1 ENV-pseudoviruses (subtype A, A/D, A2/D, A/E, A/G, B, C and D); assay: microbe, parasite or virus in culture; format: cell-based; settings: subtype D, NIH # 11912, ENV QA013.701.ENV.M12; read-out: IC50 (μM) ± S.D.
MEASURED_METRIC: IC50 (µM)

INSERT INTO results (compound, measured_metric, measured_number) VALUES
  ('Cc1nc(C(NC(=O)c2ccc(-c3ccc(Cl)cc3)[nH]2)C2CCCCN2)sc1CO (stereo not shown)', 'IC50', 2.4);
